Assay: Plasmodium falciparum growth inhibition, primary screen, strain 3D7, DAPI fluorescence, 100 nL (AID 1184);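 also: parasites grown inside human red blood cells in medium with human serum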
Conditions: P. falciparum 3D7 growth, 3 d, higher = more signal
Record form. Attribute: z-score. Fill in for each entry.
One number for each entry.

C=C(C)c1cc2c(c(CCCCCC)n1)[Si](C(C)C)(C(C)C)OC2    -0.631
CC(C)OC(=O)C=C1C[C@@H](c2ccc(C(F)(F)F)cc2)O[C@@H](c2ccc(C(F)(F)F)cc2)O1    -0.266
CCCC[C@@H]1C[C@H]1[C@@H](NC(=O)c1ccccc1)c1ccc(C(F)(F)F)cc1    0.011

Items follow; give z-score for each.
1. Cc1ccc(S[C@]2(C(=O)NCC(F)(F)F)CC(=O)N(Cc3ccccc3)[C@@H]2c2ccc(CO)cc2I)cc1
2. COCCCNC(=O)[C@@]1(Cc2ccccc2CN=[N+]=[N-])N=C(c2ccc(OCCCO)cc2)O[C@H]1c1ccccc1
3. COCCOC(=O)N1C(=O)[C@@]2(c3cc(C#CC4(O)CCCCCC4)ccc31)[C@H](c1ccc(O)cc1)N1[C@H](c3ccccc3)[C@H](c3ccccc3)OC(=O)[C@H]1[C@@H]2C(=O)NC[C@H](O)c1ccccc1
4. C=CCNC(=O)[C@H]1[C@@H]2C(=O)O[C@@H](c3ccccc3)[C@@H](c3ccccc3)N2[C@@H](c2ccc(O)cc2)[C@]12C(=O)N(C(=O)OCCOC)c1ccccc12

0.15
-2.37
-0.0194
-1.38

====

System: Sam68 (KHDRBS1)
Test: Sam68 small-molecule binders, primary screen, biochemical, small-molecule microarray, 635 nm fluorescence (AID 1125);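 also: score merges 667 nm channel intensity with signal to noise over triplicate slides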
Conditions: small-molecule microarray binding, higher = more signal
PROPERTY: composite z-score
Numbers only.

O=C1c2ccccc2[C@](Cc2ccccc2I)(C(=O)NCC(F)(F)F)[C@H](c2ccc(CO)cc2)N1C1CCCCC1    1.31
C=CC[C@]1(C(=O)O)COC(c2ccc(OCCCO)cc2)=N1    0.343

Items follow; give composite z-score for each.
1. COC(=O)[C@@]1(Cc2ccc(OC)cc2)[C@H]2c3cc(C(=O)N4CCCC4)n(Cc4c(-c5ccccc5)noc4C)c3C[C@H]2CN1C(=O)c1ccccc1
2. CN(C)C(=O)[C@@]1(CCS(=O)(=O)c2ccccc2)N=C(c2ccc(OCCCO)cc2)O[C@H]1c1ccccc1
3. COc1ccc([Si](C)(C)[C@@H]2[C@@H](CC(=O)N(CCO)Cc3ccccc3)O[C@]3(C(=O)N(Cc4cccc(N5CCOC5=O)c4)c4ccccc43)[C@H]2C)cc1
4. [N-]=[N+]=Nc1ccccc1[C@@H]1OC(c2ccc(OCCCO)cc2)=N[C@]1(Cc1ccccc1)C(=O)NCC(O)CO (stereo not given in full)
5. C[C@@H]1NC(=O)[C@@]23C(=O)N[C@@H](Cc4ccccc4)C2[C@H](C)[C@@]2(C)O[C@H]2C3/C=C/C/C=C\CNC(=O)[C@@H]2CCCN2C1=O (stereo not given in full)
6. C=CC[C@@]1(C(=O)N2CCOCC2)N=C(c2ccc(OCCCO)cc2)O[C@@H]1c1ccccc1CN=[N+]=[N-]
7. COc1cc(CO)cc(I)c1O[C@H]1C=C(C(=O)NCCO)C[C@@H](NCc2ccc(F)cc2)[C@@H]1O

1. 1.35
2. 1.16
3. 1.3
4. 0.897
5. -1
6. 1.33
7. 0.352

Items follow; give composite z-score for each.
1. COC(=O)[C@@]1(Cc2ccc(F)cc2)[C@H]2c3cc(C(=O)N4CCCC4)n(CCc4ccc(O)c(O)c4)c3C[C@H]2CN1C(=O)c1ccccc1
2. Cn1cccc1C(O)C1C=CC2C(=O)NC(=O)C2N1Nc1ccc(Cl)cc1Cl (stereo not given)
3. COCCOC(=O)N1C(=O)[C@@]2(c3cc(C#Cc4ccc(OC)cc4)ccc31)[C@H](C(=O)Nc1nc3ccccc3s1)[C@H]1C(=O)O[C@H](c3ccccc3)[C@H](c3ccccc3)N1[C@@H]2c1ccc(O)cc1
4. COCCOC(=O)N1C(=O)[C@@]2(c3cc(C#CC4=CCCCC4)ccc31)[C@H](C(N)=O)[C@H]1C(=O)O[C@H](c3ccccc3)[C@H](c3ccccc3)N1[C@@H]2c1ccccc1OCCO

[-1.03, 1.29, 1.33, 1.31]

Items follow; give composite z-score for each.
1. CCCCC(O)C1C=CC2C(=O)N(c3ccccc3)C(=O)C2N1Nc1ccc(C(C)C)cc1 (stereo not given)
2. COc1cc(OC)c(C(O)C2C=CC3C(=O)N(c4ccccc4)C(=O)C3N2Nc2ccccc2)cc1Br (stereo not given)
3. CC(=O)c1ccc(C(O)C2C=CC3C(=O)N(c4ccccc4)C(=O)C3N2Nc2ccc(C#N)cc2)cc1 (stereo not given)
4. COc1ccc(CN(C2=CC[C@@]3(C(N)=O)C(=O)C(Cl)=C(Cl)C(=O)[C@@]3(C#N)C2)S(=O)(=O)c2ccc(Br)cc2)cc1
5. CCCC[C@@H](O)C1=C(COc2ccccc2)C[C@H]2C(=O)N(C)C(=O)[C@H]2[C@H]1CO

1. 1.32
2. 1.19
3. 1.1
4. 0.295
5. -0.501

Items follow; give composite z-score for each.
1. C=CCC(OC(C)=O)[C@@H]1[C@@H](N(Cc2ccc(-c3cccc(C(F)(F)F)c3)o2)C(=O)c2ccc(C)cc2)c2cc(OCCCO)ccc2N1C(=O)c1ccc2ccccc2c1 (stereo not given in full)
2. COCCOC(=O)N1C(=O)[C@@]2(c3cc(C#CCC(C(=O)OC)C(=O)OC)ccc31)[C@H](C(=O)N1CCc3cc(OC)c(OC)cc3C1)[C@H]1C(=O)O[C@H](c3ccccc3)[C@H](c3ccccc3)N1[C@@H]2c1ccc(OCCO)cc1

1. -0.285
2. 1.29
